- procedure.details: small-molecule microarray binders of probe aCHRDL2, primary screen, biochemical, biotinylated probe, 635/667 nm fluorescence (AID 1100)
- run.parameters: higher = more signal
composite z-score values by entry

- molecule: "COc1ccc([Si](C)(C)[C@@H]2[C@@H](CCn3cc([C@H](O)c4ccccc4)nn3)O[C@]3(C(=O)N(Cc4ccc(N5CCOC5=O)cc4)c4ccccc43)[C@H]2C)cc1"
  composite z-score: -0.528
- molecule: "COC(=O)C[C@H]1O[C@]2(C(=O)N(C)c3ccccc32)[C@@H](C)[C@@H]1[Si](C)(C)c1ccc(C)cc1"
  composite z-score: -0.203
- molecule: "COc1ccc(NN2C(C(O)c3ccccn3)C=CC3C(=O)N(C4CCCCC4)C(=O)C32)cc1 (centres undefined)"
  composite z-score: 0.862
- molecule: "CC(=O)N1Cc2ccccc2C[C@]2(N=C(c3ccc(OCCCO)cc3)O[C@@H]2c2ccccc2)C1=O"
  composite z-score: 1.05
